Tested on: Mycobacterium marinum
assay_details: Infection assay: intracellular M. marinum growth (luminescence) in D. discoideum
Format: cell-based
applied_conditions: 72 h, conc 100 uM, vehicle control set at 1, read-out: mean normalized residual growth, Mm in infection
reported_endpoint: activity at 100 µM (%)
Entry rule: numbers only, all in %.

Request: # value lookup — system Mycobacterium marinum, readout activity at 100 µM, item Oc1ccc(/C=C/c2cc(O)c3c(c2)O[C@@H](c2ccc(O)cc2O)[C@@H]3c2cc(O)cc(O)c2)cc1 (relative stereo) [Compound 1, (+)-Gnetin D]
Result: 86.4

Request: # value lookup — system Mycobacterium marinum, readout activity at 100 µM, item Oc1cc(O)cc([C@H]2c3c(O)cc(/C=C/c4ccc(O)cc4O)cc3O[C@@H]2c2ccc(O)cc2O)c1 (relative stereo) [Compound 10, (−)-Gnetumontanin A]
Result: 41.3

Request: # value lookup — system Mycobacterium marinum, readout activity at 100 µM, item Oc1ccc(/C=C/c2cc(O)c3c(c2)O[C@@H](c2ccc(O)cc2)[C@@H]3c2cc(O)c3c(c2)O[C@H](c2ccc(O)cc2O)[C@H]3c2cc(O)cc(O)c2)cc1 [Compound 5, (−)-Latifolol]
Result: 2.94

Request: # value lookup — system Mycobacterium marinum, readout activity at 100 µM, item Oc1ccc([C@@H]2Oc3cc(O)ccc3[C@H]3[C@H](c4cc(O)cc(O)c4)c4c(O)cc(O)cc4[C@H]32)cc1 [Compound 9, (−)-Gnemontanin G]
Result: 71.9

Request: # value lookup — system Mycobacterium marinum, readout activity at 100 µM, item Oc1ccc(C=Cc2cc(O)cc3c2C(c2cc(O)cc(O)c2)C(c2ccc(O)c4c2OC(c2ccc(O)cc2O)C4c2cc(O)cc(O)c2)O3)cc1 (single isomer, unassigned; (-)) [Compound 11, (−)-Gnetuhainin M]
Result: -4.28

Request: # value lookup — system Mycobacterium marinum, readout activity at 100 µM, item Oc1ccc(/C=C/c2cc(O)c3c(c2)O[C@H](c2ccc(O)cc2O)[C@@H]3c2cc(O)cc(O)c2)cc1 (relative stereo) [Compound 2, (+)-Gnetupendin C]
Result: 27.8

Request: # value lookup — system Mycobacterium marinum, readout activity at 100 µM, item Oc1ccc(/C=C/c2cc(O)c3c(c2)O[C@H](c2ccc(O)cc2)[C@H]3c2cc(O)c3c(c2)O[C@H](c2ccc(O)cc2)[C@H]3c2cc(O)c3c(c2)O[C@H](c2ccc(O)cc2O)[C@H]3c2cc(O)cc(O)c2)cc1 [Compound 7, Macrostachyol A]
Result: 33.4
